For each record, write down the corresponding pIC50.
# System: LNCaP
# MEASUREMENT_DESCRIPTION: Cytotoxicity against human LNCAP cells after 48 hrs by WST1 assay
# Type: functional, cell-based
pIC50: −log10 of the molar value.

Here is how some compounds turned out for pIC50.
Cn1cc(NC(=O)c2cc(NC(=O)c3nc(NC(=O)c4cc(NC(=O)[C@H](N)CCNC(=O)c5nc(NC(=O)c6cc(NC(=O)c7cc(NC(=O)c8nccn8C)cn7C)cn6C)cn5C)cn4C)cn3C)cn2C)cc1C(=O)NCCCO/N=C\c1ccc(F)cc1 : ≤ 4.52
Cn1cc(NC(=O)c2cc(NC(=O)c3cc(NC(=O)c4nc(NC(=O)[C@H](N)CCNC(=O)c5cc(NC(=O)c6cc(NC(=O)c7cc(NC(=O)c8nccn8C)cn7C)cn6C)cn5C)cn4C)cn3C)cn2C)cc1C(=O)NCCCO/N=C\c1cccc(F)c1 : 6.22
Cn1cc(NC(=O)c2cc(NC(=O)c3cc(NC(=O)c4nc(NC(=O)[C@H](N)CCNC(=O)c5cc(NC(=O)c6cc(NC(=O)c7cc(NC(=O)c8nccn8C)cn7C)cn6C)cn5C)cn4C)cn3C)cn2C)cc1C(=O)NCCCO/N=C\c1cccc(C(=O)O)c1 : 5.77
CC(=O)NCCCO/N=C\c1ccc(F)cc1 : < 4.30
Cn1cc(NC(=O)c2cc(NC(=O)c3cc(NC(=O)c4nc(NC(=O)[C@H](N)CCNC(=O)c5cc(NC(=O)c6cc(NC(=O)c7cc(NC(=O)c8nccn8C)cn7C)cn6C)cn5C)cn4C)cn3C)cn2C)cc1C(=O)NCCCO/N=C\c1ccc(F)cc1 : 6.40

Below is a list of compounds. For each, state its recorded pIC50.
1. Cn1cc(NC(=O)c2cc(NC(=O)c3nc(NC(=O)c4cc(NC(=O)[C@H](N)CCNC(=O)c5nc(NC(=O)c6cc(NC(=O)c7cc(NC(=O)c8nccn8C)cn7C)cn6C)cn5C)cn4C)cn3C)cn2C)cc1C(=O)NCCCO/N=C\c1cccc(F)c1
2. CC(=O)NCCCO/N=C\c1cccc(C(=O)O)c1
3. Cn1cc(NC(=O)c2cc(NC(=O)c3cc(NC(=O)c4nc(NC(=O)[C@H](N)CCNC(=O)c5cc(NC(=O)c6cc(NC(=O)c7cc(NC(=O)c8nccn8C)cn7C)cn6C)cn5C)cn4C)cn3C)cn2C)cc1C(=O)NCCCCCCCNC(=O)c1cccc(C(=O)O)c1
4. CN(CCCNC(=O)c1cccc(C(=O)O)c1)CCCNC(=O)c1cc(NC(=O)c2cc(NC(=O)c3cc(NC(=O)c4nc(NC(=O)[C@H](N)CCNC(=O)c5cc(NC(=O)c6cc(NC(=O)c7cc(NC(=O)c8nccn8C)cn7C)cn6C)cn5C)cn4C)cn3C)cn2C)cn1C
5. Cn1cc(NC(=O)c2cc(NC(=O)c3cc(NC(=O)c4nc(NC(=O)[C@H](N)CCNC(=O)c5cc(NC(=O)c6cc(NC(=O)c7cc(NC(=O)c8nccn8C)cn7C)cn6C)cn5C)cn4C)cn3C)cn2C)cc1C(=O)NCCCNC(=O)c1cccc(C(=O)O)c1
6. NCCCO/N=C\c1cccc(C(=O)O)c1

**A:**
≤ 4.52
< 4.30
< 4.52
< 4.52
< 4.52
< 4.30

**Q:** Entry under review: `NCCCO/N=C\c1ccc(F)cc1` . Reported pIC50?
**A:** < 4.30
